Assay: log P determination by HPLC (reversed-phase C18, EEC Directive 79/831 Annex V.A8)
Format: physicochemical
Settings: reversed-phase C18 HPLC column, pH 2.3, pH 2.3, 0.1% aqueous phosphoric acid/acetonitrile gradient, 43° C
Text: Mobile phases for determination in the acidic range: 0.1% aqueous phosphoric acid, acetonitrile; linear gradient from 10% acetonitrile to 90% acetonitrile.
Recorded measurements of chromatographic logP, one per entry
Lab note: jot down the number only; don't add units.

Examples from the recorded data:
{"compound": "Cc1cccc(N2CCN(c3ccc(-c4ccc(C5CCC(c6c(F)cccc6F)=N5)cc4)cn3)CC2)c1C (centres unmarked)", "reported-measurement": 3.63}
{"compound": "Cc1ccc(CN(C)c2ncc(-c3ccc(C4CCC(c5c(F)cccc5F)=N4)cc3)cn2)o1 (centres unmarked)", "reported-measurement": 3.4}
{"compound": "Fc1cccc(F)c1C1=N[C@@H](c2ccc(-c3ccc(N4CCOCC4)nc3)cc2)CC1", "reported-measurement": 1.27}

input: What measured chromatographic logP goes with CCN(CC)C(=O)c1ccc(-c2ccc(C3CCC(c4c(F)cccc4F)=N3)cc2)nc1 (centres unmarked) ?
output: 2.02

input: Which chromatographic logP is listed for `Clc1ccc(NC2CCCCC2)nn1` ?
output: 0.95

====

Experiment: log P determination by HPLC (reversed-phase C18, EEC Directive 79/831 Annex V.A8)
Format: physicochemical
Details: reversed-phase C18 HPLC column, pH 2.3, pH 2.3, 0.1% aqueous phosphoric acid/acetonitrile gradient, 43° C
reported-metric: chromatographic logP

{"compound": "Fc1ccc(N2CCN(c3ncc(-c4ccc(C5CCC(c6c(F)cccc6F)=N5)cc4)cn3)CC2)cc1 (centres unmarked)", "reported-measurement": 3.95}
{"compound": "Cc1ccc(CN2CCN(c3ncc(-c4ccc(C5CCC(c6c(F)cccc6F)=N5)cc4)cn3)CC2)cc1 (centres unmarked)", "reported-measurement": 2.28}
{"compound": "CC(C)Oc1ncc(-c2ccc(C3CCC(c4c(F)cccc4F)=N3)cc2)cn1 (centres unmarked)", "reported-measurement": 2.61}

input: Can you look up the measured chromatographic logP of CC(C)(C)C1CCN(c2ccc(-c3ccc(C4CCC(c5c(F)cccc5F)=N4)cc3)cn2)CC1 (centres unmarked) for me?
output: 2.89

input: Entry CCN(Cc1ccco1)c1ncc(-c2ccc(C3CCC(c4c(F)cccc4F)=N3)cc2)cn1 (centres unmarked) has what chromatographic logP?
output: 3.59

input: Please report the recorded chromatographic logP for Fc1cccc(F)c1C1=NC(c2ccc(-c3ncc(Br)cn3)cc2)CC1 (centres unmarked) .
output: 3.08

input: Please give the measured chromatographic logP for this compound: CCNCc1ccc(-c2ccc(C3CCC(c4c(F)cccc4F)=N3)cc2)nc1 (centres unmarked)
output: 0.9

input: // returns reported chromatographic logP for input COc1ccc(CN2CCN(c3ccc(-c4ccc(C5CCC(c6c(F)cccc6F)=N5)cc4)cn3)CC2)cc1 (centres unmarked)
output: 1.59

input: Which value of chromatographic logP has been reported for CCCCN(CCCC)c1ccc(-c2ccc(C3CCC(c4c(F)cccc4F)=N3)cc2)nn1 (centres unmarked) in the records?
output: 2.56

input: What does the data say about its chromatographic logP? Entry: Fc1cccc(F)c1C1=NC(c2ccc(-c3ccc(N4CCCC4)nc3)cc2)CC1 (centres unmarked)
output: 1.45

input: Can you look up the measured chromatographic logP of Fc1cccc(F)c1C1=NC(c2ccc(-c3ccc(OCCCC(F)(F)C(F)(F)F)nn3)cc2)CC1 (centres unmarked) for me?
output: 3.58

input: I would be grateful if you could share the reported chromatographic logP for Cc1ccc(N2CCN(c3ccc(-c4ccc(C5CCC(c6c(F)cccc6F)=N5)cc4)cn3)CC2)cc1C (centres unmarked) .
output: 2.58

input: What value of chromatographic logP has been reported for the following compound? CN(c1ncc(-c2ccc(C3CCC(c4c(F)cccc4F)=N3)cc2)cn1)S(=O)(=O)C(F)(F)F (centres unmarked)
output: 3.5

input: Look at this compound and give its reported chromatographic logP. Fc1cccc(F)c1C1=NC(c2ccc(-c3cnc(N4CCOCC4)nc3)cc2)CC1 (centres unmarked)
output: 2.18
